Molecular target: T1, His-tagged human TIGIT (human, UniProt Q495A1 22-141)
T1 construct: SPR analyte; also called human TIGIT protein; not shown: His tag
T1 sequence: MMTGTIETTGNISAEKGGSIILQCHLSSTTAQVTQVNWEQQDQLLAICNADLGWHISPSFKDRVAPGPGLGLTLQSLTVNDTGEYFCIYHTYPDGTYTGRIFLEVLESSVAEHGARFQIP
Test: SPR experiment 2, IgG from HEK293 supernatant captured
Task for the reader: assign each of the following binders its reported koff.
# value in s⁻¹; strip the unit string

Record request: koff value, item humanized TIGIT-19 antibody 19VH4 + 19VL1.M4 (antibody, V domains shown, Full-length IgG, tested as HEK293 supernatant) VH: QVQLVQSGAEVKKPGASVKVSCKASGYAFSRYSMYWVRQAPGQGLEWIAFIDPYNGGSTYNQRFRGKATLTVDTSISTAYMELSRLRSDDTAVYYCARGGDYGWYLGVWGQGTLVTVSS VL: DIQMTQSPSSLSASVGDRVTITCRPSENIYTYLSWYQQKPGKAPKLLIYNAKSLPSGVPSRFSGSGSGTDFTLTISSLQPEDFATYYCQHHYGNPLTFGQGTKVEIK 2.7e-05

Record request: koff value, item humanized TIGIT-19 antibody 19VH4 + 19VL1.M5 (antibody, V domains shown, Full-length IgG, tested as HEK293 supernatant) VH: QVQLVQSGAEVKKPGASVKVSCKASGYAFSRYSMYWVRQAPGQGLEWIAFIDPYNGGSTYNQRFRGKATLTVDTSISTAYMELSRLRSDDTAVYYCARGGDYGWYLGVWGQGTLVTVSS VL: DIQMTQSPSSLSASVGDRVTITCRASQNIYTYLSWYQQKPGKAPKLLIYNAKSLPSGVPSRFSGSGSGTDFTLTISSLQPEDFATYYCQHHYGNPLTFGQGTKVEIK 8.7e-05

Recorded koff of humanized TIGIT-19 antibody 19VH4.M9 + 19VL1 (antibody, V domains shown, Full-length IgG, tested as HEK293 supernatant) VH: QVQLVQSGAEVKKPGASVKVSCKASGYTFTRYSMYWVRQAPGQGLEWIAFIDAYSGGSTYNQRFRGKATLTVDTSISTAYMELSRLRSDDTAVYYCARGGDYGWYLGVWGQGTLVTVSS VL: DIQMTQSPSSLSASVGDRVTITCRPSENIYTYLSWYQQKPGKAPKLLIYNAKTLPEGVPSRFSGSGSGTDFTLTISSLQPEDFATYYCQHHYGNPLTFGQGTKVEIK , please. 0.00023
